- tgt: Muscarinic acetylcholine receptor M1 (Rattus norvegicus)
- Sequence (P08482 whole entry): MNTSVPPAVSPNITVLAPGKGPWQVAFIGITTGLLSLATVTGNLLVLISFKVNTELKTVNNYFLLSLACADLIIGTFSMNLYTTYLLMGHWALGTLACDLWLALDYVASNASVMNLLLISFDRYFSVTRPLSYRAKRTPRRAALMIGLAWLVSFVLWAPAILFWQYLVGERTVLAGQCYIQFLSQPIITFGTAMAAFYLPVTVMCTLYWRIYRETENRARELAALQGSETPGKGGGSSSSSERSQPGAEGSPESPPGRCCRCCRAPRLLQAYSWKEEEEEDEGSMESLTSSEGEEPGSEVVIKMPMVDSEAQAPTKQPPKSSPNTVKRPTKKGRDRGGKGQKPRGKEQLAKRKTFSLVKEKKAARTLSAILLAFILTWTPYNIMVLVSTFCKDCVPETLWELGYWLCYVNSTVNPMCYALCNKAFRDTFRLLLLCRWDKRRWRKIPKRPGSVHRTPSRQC
pIC50: −log10 of the molar value.
Here we gather pIC50 data for Muscarinic acetylcholine receptor M1 (Rattus norvegicus) reported by several publications.
Rule: pIC50 of 6 or more gives Condition met; anything lower gives Condition not met.

Below are worked cases with known answers.
{"compound": "COc1noc2c1CSCC2", "class_name": "Condition not met"}
{"compound": "CCCc1cc(NC2CCCN2CC)nnc1-c1ccccc1 (single isomer, unassigned; (-))", "class_name": "Condition met"}
{"compound": "c1ccc(-c2cc(Cc3ccc4ccccc4c3)c(NCCN3CCOCC3)nn2)cc1", "class_name": "Condition not met"}
{"compound": "c1ccc(-c2ccc(NCCN3CCOCC3)nn2)cc1", "class_name": "Condition not met"}
{"compound": "CCOC(=O)C1=CCC[S+](C)C1.[Cl-] (configuration not stated)", "class_name": "Condition met"}
{"compound": "CCCc1cc(NCC(C)(C)N(CC)CC)nnc1-c1ccccc1", "class_name": "Condition met"}
{"compound": "c1ccc(-c2cc(NCCN3CCOCC3)nnc2-c2ccccc2)cc1", "class_name": "Condition met"}
{"compound": "CCCCOc1cscc1C1=CCCN(C)C1", "class_name": "Condition met"}

Reported pIC50 reaches at least 6 for "Cc1cc(-c2ccccc2)nnc1NCCN(C)C" ?
Condition met

Determine whether measured pIC50 meets or exceeds 6 for "Cc1cc(C2CCCCC2)nnc1NCCN1CCOCC1"
Condition not met

Can "CCN(CC)C(C)(C)CNc1cc(C)c(-c2ccccc2O)nn1" be said to have pIC50 at or above 6?
Condition met

====

Literature survey of IC50 (system: Muscarinic acetylcholine receptor M1 (Rattus norvegicus, UniProt P08482)).
- tgt: Muscarinic acetylcholine receptor M1 (Rattus norvegicus, UniProt P08482)
- Sequence (P08482 whole entry): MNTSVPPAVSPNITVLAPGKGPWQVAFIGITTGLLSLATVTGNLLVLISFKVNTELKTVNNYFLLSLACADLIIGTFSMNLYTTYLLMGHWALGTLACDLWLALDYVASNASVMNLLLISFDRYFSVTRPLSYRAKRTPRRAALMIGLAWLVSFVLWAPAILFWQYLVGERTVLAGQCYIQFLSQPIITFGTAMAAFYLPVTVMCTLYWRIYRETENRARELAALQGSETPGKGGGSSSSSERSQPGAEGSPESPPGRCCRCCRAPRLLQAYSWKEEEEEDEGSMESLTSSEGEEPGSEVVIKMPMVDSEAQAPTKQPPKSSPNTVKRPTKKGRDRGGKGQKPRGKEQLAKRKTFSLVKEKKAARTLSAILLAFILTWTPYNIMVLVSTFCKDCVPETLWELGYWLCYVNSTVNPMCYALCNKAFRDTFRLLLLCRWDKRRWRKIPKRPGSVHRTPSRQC

{"compound": "O=C1Nc2cccnc2N(C(=O)CNCC2CCCN3CCCCC23)c2ccccc21 (stereo unspecified)", "result": "28 nM"}
{"compound": "CCN(CC)C(C)(C)CNc1cc(C2CC2)c(-c2ccccc2)nn1", "result": "400 nM"}
{"compound": "Cc1cc(NCCCN(C)C)ccc1-c1ccccc1", "result": "500 nM"}
{"compound": "C#CCOc1noc2c1C[S+](C)CC2.[I-] (stereo unspecified)", "result": "250 nM"}
{"compound": "CCN1CCCC1CNc1cc(-c2ccccc2)c(C)nn1 (stereo unspecified)", "result": "20 nM"}

Enter IC50 (test system Muscarinic acetylcholine receptor M1 (Rattus norvegicus, UniProt P08482)) for COC(=O)C1CCCN=C1N.Cl (stereo unspecified)
320000 nM

Identify measured IC50 obtained with Muscarinic acetylcholine receptor M1 (Rattus norvegicus, UniProt P08482) for "COc1noc2c1CN(C)CC2" .
6400 nM

Report IC50 from Muscarinic acetylcholine receptor M1 (Rattus norvegicus, UniProt P08482) testing of "O=C(O)c1cc(-c2ccccc2)nnc1NCCN1CCOCC1"
> 100000 nM

Write IC50 of "N#Cc1cc(-c2ccccc2)nnc1NCCN1CCOCC1" ; system used: Muscarinic acetylcholine receptor M1 (Rattus norvegicus, UniProt P08482)
60000 nM

Report value: IC50, system: Muscarinic acetylcholine receptor M1 (Rattus norvegicus, UniProt P08482), compound: CN1CCC=C(C2CN(C(=S)Nc3ccccc3F)CCO2)C1 (stereo unspecified)
67000 nM

# return IC50 of CCN1CCCC1CNc1cc(C)c(-c2ccccc2)nn1 (stereo unspecified) (system: Muscarinic acetylcholine receptor M1 (Rattus norvegicus, UniProt P08482))
260 nM

# return IC50 for CCOc1noc2c1C[S+](C)CC2.[I-] (stereo unspecified) , test system: Muscarinic acetylcholine receptor M1 (Rattus norvegicus, UniProt P08482)
530 nM

Provide the reported IC50 (system: Muscarinic acetylcholine receptor M1 (Rattus norvegicus, UniProt P08482)) for "CCN(CC)C(C)(C)CNc1cc(-c2ccccc2)c(C)nn1"
180 nM
